# tested_target: human progesterone receptor A (Homo sapiens, UniProt P06401)
# Sequence (P06401 1-769 isoform P06401-2): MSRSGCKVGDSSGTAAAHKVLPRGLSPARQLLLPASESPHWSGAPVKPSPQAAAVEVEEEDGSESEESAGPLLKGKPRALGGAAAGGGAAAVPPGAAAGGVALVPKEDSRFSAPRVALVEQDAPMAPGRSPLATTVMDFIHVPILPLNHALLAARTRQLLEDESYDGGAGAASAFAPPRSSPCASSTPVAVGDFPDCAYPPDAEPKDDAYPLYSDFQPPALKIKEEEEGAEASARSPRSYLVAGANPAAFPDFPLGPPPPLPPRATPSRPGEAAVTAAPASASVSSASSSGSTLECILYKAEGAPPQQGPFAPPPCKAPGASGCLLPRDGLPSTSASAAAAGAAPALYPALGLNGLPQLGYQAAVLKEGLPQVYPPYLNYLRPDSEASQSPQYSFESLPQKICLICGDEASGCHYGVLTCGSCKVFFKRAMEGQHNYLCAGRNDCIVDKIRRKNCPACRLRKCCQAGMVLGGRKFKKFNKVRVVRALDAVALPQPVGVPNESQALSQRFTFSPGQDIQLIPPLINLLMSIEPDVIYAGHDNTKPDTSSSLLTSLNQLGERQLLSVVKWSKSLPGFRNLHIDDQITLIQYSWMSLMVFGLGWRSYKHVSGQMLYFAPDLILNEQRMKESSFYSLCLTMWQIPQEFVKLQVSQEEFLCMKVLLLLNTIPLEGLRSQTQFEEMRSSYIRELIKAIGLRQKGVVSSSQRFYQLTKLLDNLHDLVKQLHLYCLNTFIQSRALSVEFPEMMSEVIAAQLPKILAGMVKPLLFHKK
# assay_comment: Progesterone receptor-antagonistic action in stably transfected SK-N-MC cells with MMTV-LUC reporter (PR-A)
# recorded_conditions: antagonistic potency against 0.1 nmol/l promegestone, 24 hours, luciferase
List of IC50 values.
// return numeric value only (unit: nM, not printed)

# annotated cases, reported IC50 shown
Please look up its IC50: CC(C)CO/N=C/c1ccc([C@H]2C[C@@]3(C)[C@@H](CC[C@@]3(O)C(F)(F)C(F)(F)F)[C@@H]3CCC4=CC(=O)CCC4=C32)cc1
0.09

C[C@]12C[C@H](c3ccc(/C=C/c4ccncc4)cc3)C3=C4CCC(=O)C=C4CC[C@H]3[C@@H]1CC[C@@]2(O)C(F)(F)C(F)(F)F , same question.
0.012

Here is the next item to consider.
Please look up its IC50: C[C@]12C[C@H](c3ccc(/C=C/CNC(=O)Nc4ccc(N5CCCCC5)cc4)cc3)C3=C4CCC(=O)C=C4CC[C@H]3[C@@H]1CC[C@@]2(O)C(F)(F)C(F)(F)F
0.5

###

List of Predicted clearance [l/h/kg] Rat values.
# assay_comment: Metabolic stability in rat liver microsomes
# Format: in vitro ADME
# recorded_conditions: well-stirred model
// return numeric value only (unit: L/h/kg, not printed)

# annotated cases, reported Predicted clearance [l/h/kg] Rat shown
Please look up its Predicted clearance [l/h/kg] Rat: C=CC=Cc1ccc([C@H]2C[C@@]3(C)C(CC[C@@]3(O)C(F)(F)C(F)(F)F)C3CCC4=CC(=O)CCC4=C32)cc1 (mixture of isomers)
1.8

C[C@]12C[C@H](c3cccc(/C=C/c4ccncc4)c3)C3=C4CCC(=O)C=C4CC[C@H]3[C@@H]1CC[C@@]2(O)C(F)(F)C(F)(F)F , same question.
0.2

Cc1nc2cc(/C=C/c3ccc([C@H]4C[C@@]5(C)[C@@H](CC[C@@]5(O)C(F)(F)C(F)(F)F)[C@@H]5CCC6=CC(=O)CCC6=C54)cc3)ccc2s1 , same question.
1.0

C[C@]12C[C@H](c3ccc(/C=C/C#N)cc3)C3=C4CCC(=O)C=C4CC[C@H]3[C@@H]1CC[C@@]2(O)C(F)(F)C(F)(F)F , same question.
1.1

C[C@]12C[C@H](c3ccc(/C=C/CO)cc3)C3=C4CCC(=O)C=C4CC[C@H]3[C@@H]1CC[C@@]2(O)C(F)(F)C(F)(F)F , same question.
1.3

More entries:
Please look up its Predicted clearance [l/h/kg] Rat: C[C@]12C[C@H](c3cccc(/C=C/c4cccnc4)c3)C3=C4CCC(=O)C=C4CC[C@H]3[C@@H]1CC[C@@]2(O)C(F)(F)C(F)(F)F
1.0

###

List of pIC50 values.
# tested_target: human progesterone receptor A (Homo sapiens)
# assay_comment: Progesterone receptor-antagonistic action in stably transfected SK-N-MC cells with MMTV-LUC reporter (PR-A)
# recorded_conditions: antagonistic potency against 0.1 nmol/l promegestone, 24 hours, luciferase
# From the text: Determination of Progesterone Receptor-Antagonistic Action in Stable Transfectants of Human Neuroblastoma Cells (SK-N-MC Cells) with the Human Progesterone A or Progesterone B Receptor and an MN-LUC Reporter Construct […]
Note on pIC50: it is the negative log10 of concentration, concentration in mol/L.

# annotated cases, reported pIC50 shown
Please look up its pIC50: C[C@]12C[C@H](c3ccc(/C=C/CNC(=O)Nc4ccccc4)cc3)C3=C4CCC(=O)C=C4CC[C@H]3[C@@H]1CC[C@@]2(O)C(F)(F)C(F)(F)F
10.00

C[C@]12C[C@H](c3ccc(C=NOCc4ccccc4)cc3)C3=C4CCC(=O)C=C4CC[C@H]3[C@@H]1CC[C@@]2(O)C(F)(F)C(F)(F)F , same question.
10.00

CCO/N=C/c1ccc([C@H]2C[C@@]3(C)[C@@H](CC[C@@]3(O)C(F)(F)C(F)(F)F)[C@@H]3CCC4=CC(=O)CCC4=C32)cc1 , same question.
10.10

More entries:
Please look up its pIC50: C[C@]12C[C@H](c3ccc(/C=C/CC(C#N)C#N)cc3)C3=C4CCC(=O)C=C4CCC3C1CC[C@@]2(O)C(F)(F)C(F)(F)F (some centres unmarked)
9.70

C[C@]12C[C@H](c3ccc(/C=C/CNC(=O)Nc4ccc(F)cc4)cc3)C3=C4CCC(=O)C=C4CC[C@H]3[C@@H]1CC[C@@]2(O)C(F)(F)C(F)(F)F , same question.
10.00

C[C@]12C[C@H](c3ccc(/C=N/OCc4ccc(Cl)c(Cl)c4)cc3)C3=C4CCC(=O)C=C4CC[C@H]3[C@@H]1CC[C@@]2(O)C(F)(F)C(F)(F)F , same question.
9.40

C[C@]12C[C@H](c3cccc(/C=C/c4ccncc4)c3)C3=C4CCC(=O)C=C4CC[C@H]3[C@@H]1CC[C@@]2(O)C(F)(F)C(F)(F)F , same question.
9.70

COC(=O)C(C/C=C/c1ccc([C@H]2C[C@@]3(C)[C@@H](CC[C@@]3(O)C(F)(F)C(F)(F)F)[C@@H]3CCC4=CC(=O)CCC4=C32)cc1)C(=O)OC , same question.
9.00

###

# assay_comment: Metabolic stability in rat liver microsomes
# Type: in vitro ADME
List of Predicted Fmax [%] (maximum oral bioavailability) Rat values.
// return numeric value only (unit: %, not printed)

Please look up its Predicted Fmax [%] (maximum oral bioavailability) Rat: CCO/N=C/c1ccc([C@H]2C[C@@]3(C)[C@@H](CC[C@@]3(O)C(F)(F)C(F)(F)F)[C@@H]3CCC4=CC(=O)CCC4=C32)cc1
82

C[C@]12C[C@H](c3ccc(/C=C/c4ccncc4)cc3)C3=C4CCC(=O)C=C4CC[C@H]3[C@@H]1CC[C@@]2(O)C(F)(F)C(F)(F)F , same question.
92

C[C@]12C[C@H](c3ccc(/C=C/CC(C#N)C#N)cc3)C3=C4CCC(=O)C=C4CCC3C1CC[C@@]2(O)C(F)(F)C(F)(F)F (some centres unmarked) , same question.
79

C[C@]12C[C@H](c3ccc(/C=C/CC(C(=O)O)C(=O)O)cc3)C3=C4CCC(=O)C=C4CC[C@H]3[C@@H]1CC[C@@]2(O)C(F)(F)C(F)(F)F , same question.
88

C[C@]12C[C@H](c3ccc(/C=C/c4ccc(C(=O)O)cc4)cc3)C3=C4CCC(=O)C=C4CC[C@H]3[C@@H]1CC[C@@]2(O)C(F)(F)C(F)(F)F , same question.
100

More entries:
Please look up its Predicted Fmax [%] (maximum oral bioavailability) Rat: C[C@]12C[C@H](c3ccc(/C=C/c4ccccn4)cc3)C3=C4CCC(=O)C=C4CC[C@H]3[C@@H]1CC[C@@]2(O)C(F)(F)C(F)(F)F
83

C[C@]12C[C@H](c3ccc(/C=C/C(=O)O)cc3)C3=C4CCC(=O)C=C4CC[C@H]3[C@@H]1CC[C@@]2(O)C(F)(F)C(F)(F)F , same question.
97

C[C@]12C[C@H](c3ccc(/C=C/c4cccc(C(=O)O)c4)cc3)C3=C4CCC(=O)C=C4CC[C@H]3[C@@H]1CC[C@@]2(O)C(F)(F)C(F)(F)F , same question.
97
